test: Components of the Cytosolic LPS Sensing Pathway: Gene Identification via Genome-wide siRNA Screen; conditions: RAW264.7 macrophages, IL-1a HTRF, actives lie on both sides, screened at 100 nM (by protocol), cells primed 5 h with Pam3CSK4 first
Out of some 53,000 sequences screened, about 3,700 (7%) were called active.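 The calls were made as follows: active = gene knockdowns whose robust z-score for IL-1 alpha signal is at least 2 or at most -2, so actives lie on both sides; inactive = the rest.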 This excerpt belongs to a sample that is enriched for actives.
Respond with a class label; see yes for active, no for inactive

So what was the verdict on GGAAGAUGACAGUGCUGUATT against Utp25 in this test?
no

So what was the verdict on CCGAGAUAUGAAUCAAAUUTT against Wars in this test?
yes

So what was the verdict on GGACACAGAAAAAGUUGAATT against Tbc1d4 in this test?
no

So what was the verdict on GCUUUAUGGAUCUACCAAATT against Fbxl3 in this test?
no

So what was the verdict on CCACUUAGGUUAGAAAGAATT against R3hdm1 in this test?
no

So what was the verdict on GGACAGCAAGACAGAAAACTT against Csf2rb2 in this test?
no

So what was the verdict on GGUGGAAGAUUAGUGACUUTT against Trim38 in this test?
no

So what was the verdict on GGAACUUUAUGUGGAAAGATT against Vmn1r235 in this test?
no

So what was the verdict on GGAGAUCCUCAAGGAGCAGTT against Park7 in this test?
yes

So what was the verdict on CCACCUAUUACAUGAUCUUTT against Rnf32 in this test?
no

So what was the verdict on GGUCUACCAUUUCACCUUGTT against Cops4 in this test?
no

So what was the verdict on GCACUAAAGGGCUUUUCAUTT against Serping1 in this test?
no

So what was the verdict on GGAAAUAAAUGGCAGCAUGTT against H2-T3 in this test?
no

So what was the verdict on GGAGUAGCUGAAUCUGAAGTT against Atp5e in this test?
no

So what was the verdict on GGUAGACAAGAUCAUCGGATT against Dsc3 in this test?
no

So what was the verdict on GGCAGUCUACUUUACACGGTT against Prdm1 in this test?
no

So what was the verdict on GGGCAAUUCUAUCAAAGAGTT against Gps1 in this test?
yes

So what was the verdict on GGACUCCUAAUGAAUAAUCTT against Wee2 in this test?
yes

So what was the verdict on GGACACUUUCAGACCUUAGTT against Ankrd27 in this test?
no

So what was the verdict on CGUUGAUGUGUAUUUAAACTT against Vopp1 in this test?
no

So what was the verdict on GGAUAGCAGCUGAGUUUUATT against Asb5 in this test?
yes
